experiment: Octanol-phosphate buffer partition coefficient, log P of the compound at 5 mg after 24 hrs by UV spectroscopic analysis; type: physicochemical
reported.endpoint: logP at 24 h

>>> print(df.to_string())
                            molecule_smiles  result_number
0  Cc1ccc(Oc2ccc(/C=N/NC(=S)Nc3ccc(Cl)cc3)cc2)cc1           5.97
1  O=[N+]([O-])c1ccc(Oc2ccc(/C=N/NC(=S)Nc3ccc(F)cc3)cc2)cc1           4.89
2  Cc1cc(Oc2ccc(/C=N/NC(=S)Nc3ccccc3)cc2)ccc1Cl           6.03
